Tested on: XIP peptide (Xip251-270) binding
protocol.notes: XIP fragment 251-270 binding compounds – biochemical, small-molecule microarray, fluorescence 635/667 nm, 0.1 µg/mL protein, primary screen (AID 1182)
experimental.parameters: fluorescent protein binding, 635 nm, higher = more signal, called active from +8 up or from −8 down
Listed next: entries and their corresponding composite z-score.
metric: composite z-score

molecule	assayed.target	observed.value
COc1ccc([Si](C)(C)[C@@H]2[C@@H](CC(=O)N3Cc4ccccc4C[C@H]3CO)O[C@]3(C(=O)N(Cc4cccc(N5CCC5=O)c4)c4ccccc43)[C@H]2C)cc1	XIP peptide (Xip251-270) binding	0.607
COc1cc(CO)cc(I)c1O[C@H]1C=C(C(=O)NCCO)C[C@@H](NC[C@@H]2CCCO2)[C@@H]1O	XIP peptide (Xip251-270) binding	0.546
O=C(O)[C@@]1(CCS(=O)(=O)c2ccccc2)N=C(c2ccc(OCCCO)cc2)O[C@H]1c1ccccc1	XIP peptide (Xip251-270) binding	1.15
C=C(CCCC)C(=O)CC[C@@H](OC(C)=O)c1ccc(CO)o1	XIP peptide (Xip251-270) binding	0.247
CC=CC(O)C1C=CC2C(=O)N(C)C(=O)C2N1N(c1ccccc1)c1ccccc1 (stereo not given)	XIP peptide (Xip251-270) binding	0.212

###

protocol.notes: changes in parasitized red cell lysis, either direction – P. falciparum Indochina, OD700, 3 h, PSAC antagonist project, primary screen (AID 1156)
experimental.parameters: P. falciparum-infected erythrocytes, osmotic lysis, higher = more signal, called active from +8 up or from −8 down

compound	z-score
C#CCN1[C@@H](Cc2ccc(O)cc2)C(=O)O[C@H](Cc2ccccc2)[C@@H]1/C=C/C1CC1	-1.15
CO[C@H]1O[C@H](CO)[C@@H](OC(=O)Nc2cccc(F)c2)[C@H](OC(=O)Nc2ccccc2)[C@H]1OC(=O)Nc1ccccc1	-0.711
CS(=O)(=O)CCOC(=O)C1=CC(CCCO)=CC(C2CC2)N(Cc2cc3c(cc2Br)OCO3)C=C1C(=O)OCCS(C)(=O)=O (stereo not given)	0.106
CO[C@H]1O[C@H](CO)[C@@H](OC(=O)Nc2ccc(Oc3ccccc3)cc2)[C@H](OC(=O)Nc2ccc3c(c2)OCO3)[C@@H]1OC(=O)Nc1ccc2c(c1)OCO2	0.403
CC(=O)NCCCC[C@@H]1NC(=O)[C@H]2C[C@@H](C(=O)O)[C@@H](c3ccc(O)cc3)N2C1=O	-0.368
COC(=O)[C@@]1(Cc2ccc(F)cc2)[C@H]2c3cc(C(=O)N(C)C)n(Cc4ccc(C)o4)c3C[C@H]2CN1C(=O)c1ccccc1	0.951
COc1ccc([Si](C)(C)[C@@H]2[C@@H](CCO)O[C@]3(C(=O)N(Cc4cccc(N5CCOC5=O)c4)c4ccccc43)[C@H]2C)cc1	-0.28
C=CCNC(=O)[C@@H]1[C@H]2C(=O)O[C@H](c3ccccc3)[C@H](c3ccccc3)N2[C@H](c2ccc(OCCO)cc2)[C@@]12C(=O)N(C(=O)OCCOC)c1ccc(C#CCC(C(=O)OC)C(=O)OC)cc12	-0.211
C#CCN(C/C=C/c1ccccc1)[C@H](CO)c1ccccc1	0.0025
CCCCCN1CC=CC23O[C@@H]4C=CCOC(=O)[C@@H]4[C@H]2C(=O)N(C(C)CO)[C@@H]3C1=O (stereo not given in full)	0.136
Cc1c(NC(=O)/C(C#N)=C/c2cccc([N+](=O)[O-])c2)c(=O)n(-c2ccccc2)n1C	-0.451
COc1ccc(C(=O)Nc2cccc(CN3C(=O)[C@]4(O[C@H](CCn5cc(CCO)nn5)[C@@H]([Si](C)(C)c5ccc(OC)cc5)[C@@H]4C)c4ccccc43)c2)cc1	0.155
CC(CO)N1C(=O)[C@@H]2C3C(=O)OCCC/C=C\[C@H]3OC23C=CCN(CCN2CCOCC2)C(=O)[C@@H]13 (stereo not given in full)	1.7
CCOC(=O)C1=CC[C@@H](c2ccccc2)N(S(=O)(=O)c2ccc(C)cc2)[C@H]1c1ccc(CC)cc1	-0.862
COCC(=C=CC[C@H](O)c1cccc(OCCO)c1)C[C@H](O)c1cc(Cl)cc(Cl)c1O	0.658
COc1ccc([Si](C)(C)[C@@H]2[C@@H](CC(=O)N3CCC[C@H]3CO)O[C@]3(C(=O)N(Cc4cccc(I)c4)c4ccccc43)[C@H]2C)cc1	1.39
COc1ccc([Si](C)(C)[C@H]2[C@H](CC(=O)N3CCC[C@H]3CO)O[C@@]3(C(=O)N(Cc4cccc(N5CCOC5=O)c4)c4ccccc43)[C@@H]2C)cc1	0.618
N#Cc1ccc(C(O)C2C=CC3C(=O)N(c4ccccc4)C(=O)C3N2Nc2ccccc2F)cc1 (stereo not given)	-0.246
COC(=O)[C@@]1(Cc2ccccc2)[C@H]2c3cc(C(=O)N4CCCC4)n(Cc4ccc(O)c(OC)c4)c3C[C@H]2CN1C(=O)c1ccccc1	0.393
O=C1C2C=CC(C(O)c3cc(C(F)(F)F)cc(C(F)(F)F)c3)N(Nc3ccccc3)C2C(=O)N1c1ccccc1 (stereo not given)	-2.01
CCOc1cc(C(O)C2C=CC3C(=O)N(c4ccccc4)C(=O)C3N2Nc2ccc(C(C)C)cc2)ccc1O (stereo not given)	1.74
CCOC(=O)C[C@H]1[C@H](OC(=O)c2ccc(C(=O)c3ccccc3)cc2)[C@@H](NC(=O)c2ccccc2)c2cc(OCCCO)ccc2N1C(=O)c1ccccc1	0.0495
COc1ccccc1CN1C(=O)c2ccccc2[C@@H](C(=O)NCc2ccccc2)[C@@H]1c1ccc(CO)cc1	0.708
NCCCCCNC(=O)[C@H]1C[C@H]2C(=O)N3CCC[C@H]3C(=O)N2[C@H]1c1ccc(O)cc1	-1.9
COc1ccc(-c2cc3c(c(Cc4ccccc4)n2)[Si](C(C)C)(C(C)C)OC3)cn1	-0.709
C#CCNCc1ccccc1	-0.116
[N-]=[N+]=Nc1ccccc1C[C@@]1(C(=O)N2CCCCC2)N=C(c2ccc(OCCCO)cc2)O[C@@H]1c1ccccc1N=[N+]=[N-]	2.52
COCCCNC(=O)[C@@H]1c2ccccc2C(=O)N(Cc2ccccc2OC)[C@H]1c1ccc(CO)cc1	0.591
CO[C@H]1O[C@H](CO)[C@@H](OC(=O)Nc2ccccc2)[C@@H]2OC(=O)[C@@H](Cc3ccc4ccccc4c3)C/C=C/C[C@H](Cc3ccc4ccccc4c3)C(=O)O[C@@H]12	-1.94
NCCCCCNC(=O)[C@H]1C[C@H]2C(=O)N[C@@H](Cc3ccccc3)C(=O)N2[C@H]1c1cccc(OCCO)c1	-0.685
